These measurements were taken from PubChem BioAssay.

# assay remarks: reduction of polyQ htt aggregates in cells – imaging, exon1htt(103Q)mCFP cells, high-content imaging, primary screen (AID 483);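 note: compound exposure lasted 3 days before fixation; percent of the per-plate median nuclei count of sample wells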
# condition summary: exon1htt(103Q)mCFP cell line, aggregate imaging, at 2 µM; measured here: cell count, toxicity
nuclei count listing for selected compounds.
Give a bare numeral; the unit % is implied.

Check out these entries, answers already filled in.
COc1ccc(Nc2nc(-c3sc(N)nc3C)cs2)cc1
116
Cc1cccc(Cn2c(SCC(=O)Nc3ccccc3)nc3c2c(=O)[nH]c(=O)n3C)c1
83.4
C=CCNC(=O)CSc1nc2sc(C)c(C)c2c(=O)[nH]1
91.2
CCN(CC)C(=O)C1CCCN(c2ncnc3c2cnn3-c2ccc(Cl)cc2)C1 (stereo not drawn)
103
OC(CCN1CCOCC1)(c1ccc(Cl)cc1)C1CCCCC1 (stereo not drawn)
48.5

Could you tell me which nuclei count is on file for Cc1ccc(C2=Nc3ccccc3NC(C)(c3ccc(C)o3)C2)o1 (stereo not drawn) ? 100

What would you report for CCCCn1c(SCC(=O)N2CC(=O)Nc3ccccc32)nnc1-c1ccoc1C ? 114

What would you report for C=CCn1c(SCC(=O)Nc2cccc(OC)c2)nnc1-c1cccnc1 ? 118

What would you report for CCOc1ccc2nc(NC(=O)CSc3nnnn3C3CCCCC3)sc2c1 ? 108

What would you report for COc1ccc(C(=O)Cn2nnc(-c3cccs3)n2)cc1 ? 89.5

What would you report for Cc1c(C(=O)N2CCCC2)sc(NC(=O)c2cccs2)c1C#N ? 86.7

What would you report for COc1cccc(C2C(C(N)=O)=C(C)Nc3nc(CCCO)nn32)c1OC (stereo not drawn) ? 102

What would you report for CCCCOC(=O)CN1C(=O)c2ccc(C(=O)OCCCC)cc2C1=O ? 36.7

What would you report for CCOC(=O)CSc1nnc([C@H](C)NC(=O)OC(C)(C)C)o1 ? 83.6

What would you report for CNC(=O)c1ccsc1NC(=O)c1ccccc1 ? 91.6

What would you report for O=C(NCc1cccs1)C1CCN(S(=O)(=O)c2cccs2)CC1 ? 99.2

What would you report for C=CCn1c(SCC(=O)c2cc(C)n(C(C)COC)c2C)nc2sc(C)c(C)c2c1=O (stereo not drawn) ? 99.9

----------
# assay remarks: blockers of RIG-like receptor reporter activation – cell-based, Sendai virus stimulus, luciferase, 10K MLSCN set, TLR/RLR signaling modifier project, primary screen (AID 602276);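 note: firefly luciferase from ISG56 promoter only with Renilla not read in this screen; 0% = Sendai virus plus DMSO and 100% = medium plus DMSO without virus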
# condition summary: HEK293 RL24 IRF3 luciferase reporter, at 10 µM, stronger effect = higher value
Active and inactive are the calls of the source.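 The calls were made as follows: active = inhibition at or above 50% at 10 µM; inactive = inhibition below 50%.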
reported property: inhibition

Cc1ccc(S(=O)(=O)NCCOC(=O)Nc2sc(=S)n(C)c2C)cc1
-15% (inactive)

Could you tell me which inhibition is on file for COc1ccccc1OCC(=O)Nc1cccc(-c2nc3ccccc3o2)c1 ? -0.911% (inactive)

----------
# assay remarks: inhibitors of TNFa-induced NFkB p65 translocation, primary screen, imaging, HUVEC, MLSMR starter and 10KST1 sets (AID 438);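 note: compound added about 3h40 before a 20 min TNFalpha stimulation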
# condition summary: HUVEC TNFa-induced p65 nuclear translocation; measured here: nuclei count (cytotoxicity indicator), at 2.08 µM
reported property: cell count
Returns: the value as a bare number; no unit string appended.

Check out these entries, answers already filled in.
COc1ccc(NC(=O)CN2CCN(CC(=O)Nc3cc(OC)cc(OC)c3)CC2)cc1
306
COc1cc(NC(=O)C(C)Oc2ccccc2)c(C(=O)O)cc1OC (stereo unspecified)
622
CSc1cccc(NS(=O)(=O)c2ccccc2)c1
420
CC1CCN(C(=O)CSc2nc3c(cnn3-c3ccccc3)c(=O)[nH]2)CC1
472
Cc1nc2ccc(S(=O)(=O)NC(C(=O)NCc3cccs3)C(C)C)cc2s1 (stereo unspecified)
332
COc1ccc(CCNC(=O)c2ccncc2)cc1OC
162
Cn1c(SCc2nnc3n2CCCCC3)nc2ccccc21
252
O=C(NCC(c1cccnc1)N1CCN(c2ccc(F)cc2)CC1)c1ccc(F)cc1 (stereo unspecified)
346

Could you tell me which cell count is on file for CCC1(c2ccc(F)cc2)NC(=O)N(CC(=O)c2ccc[nH]2)C1=O (stereo unspecified) ? 556

What would you report for Cc1cc(C(=O)NCCN2CCCCC2C)n(-c2ccccc2)n1 (stereo unspecified) ? 879

What would you report for COCCSc1nnc(NC(=O)Cc2ccccc2OC)s1 ? 660
